biological target: SHP2 (Homo sapiens (Human)); test: SHP2 allosteric inhibition assay (DiFMUP prompt fluorescence); conditions: 0.5 nM SHP2 activated with 0.5 μM peptide IRS1_pY1172(dPEG8)pY1222; substrate DiFMUP; 25° C.
valueKind: IC50 (µM)

Before answering, review these 3 worked examples.
C[C@H]1CC2(CCN(c3nc(N)c(Sc4cccnc4C(F)(F)F)c(=O)n3C)CC2)[C@H](N)[C@@H]1C(F)(F)F (single isomer, unassigned) :: 0.061
Cn1c(N2CCC(C)(CN)CC2)nc(N)c(Sc2cccc3cccnc23)c1=O :: 0.279
C[C@@H]1OCC2(CCN(c3nc(N)c(Sc4cccc5c4OCO5)c(=O)n3C)CC2)[C@@H]1N :: 0.012

(P) C[C@H]1C[C@@H](N)C2(CCN(c3ncc(Sc4cccnc4C(F)(F)F)c(=O)n3C)CC2)C1
(Q) C[C@@H]1OCC2(CCN(c3ncc(Sc4cccc(Cl)c4Cl)c(=O)n3C)CC2)[C@@H]1N
(R) Cc1ccccc1-c1c(N)nc(N2CCC3(CC2)CO[C@@H](C)[C@H]3N)n(C)c1=O
(S) C[C@@H]1OCC2(CCN(c3ncc(Sc4cccc(Cl)c4Cl)c(=O)[nH]3)CC2)[C@@H]1N
Exercise: Order the 4 molecules from highest to lowest IC50. Return value: ordered labels per request.
Key: R, P, Q, S
(R: 0.271 µM, P: 0.05 µM, Q: 0.015 µM, S: 0.009 µM)

###

target: SHP2 (Homo sapiens (Human), UniProt Q06124); experiment: SHP2 allosteric inhibition assay (DiFMUP prompt fluorescence); conditions: 0.5 nM SHP2 activated with 0.5 μM peptide IRS1_pY1172(dPEG8)pY1222; substrate DiFMUP; 25° C.
valueKind: IC50 (nM)

Before answering, review these 5 worked examples.
C[C@H]1C[C@@H](N)C2(CCN(c3nc(N)c(Sc4ccnc(N5CCCC5)c4Cl)c(=O)n3C)CC2)C1 :: 25
Cn1c(N2CCC(C)(CN)CC2)nc(N)c(Sc2ccc(N)cc2Cl)c1=O :: 609
C[C@H]1C[C@@H](N)C2(CCN(c3nc(N)c(Sc4ccncc4Cl)c(=O)n3C)CC2)C1 :: 27
C[C@@H]1OCC2(CCN(c3nc(N)c(-c4cncc(Cl)c4)c(=O)n3C)CC2)[C@@H]1N :: 172
C[C@H]1C[C@@H](N)C2(CCN(c3nc(N)c(Sc4ccncc4C(F)(F)F)c(=O)n3C)CC2)C1 :: 18

(1) COc1ccc(-c2c(N)nc(N3CCC4(CC3)CO[C@@H](C)[C@H]4N)n(C)c2=O)cc1
(2) C[C@@H]1OCC2(CCN(c3nc(N)c(Sc4cccc(N)c4Cl)c(=O)n3C)CC2)[C@@H]1N
Exercise: Task for the reader: decide whether 1 or 2 has the larger IC50. State your choice using its label.
Key: 1

###

biological target: SHP2 (Homo sapiens (Human)); assay: SHP2 allosteric inhibition assay (DiFMUP prompt fluorescence); conditions: 0.5 nM SHP2 activated with 0.5 μM peptide IRS1_pY1172(dPEG8)pY1222; substrate DiFMUP; 25° C.
pIC50: −log10 of the molar value.
valueKind: pIC50

(I) CCOc1nccc(Sc2c(N)nc(N3CCC4(CC3)CO[C@@H](C)[C@H]4N)n(C)c2=O)c1Cl
(II) C[C@@H]1OCC2(CCN(c3nc(N)c(-c4ccnc(Cl)c4)c(=O)n3C)CC2)[C@@H]1N
(III) C[C@@H]1OCC2(CCN(c3nc(N)c(Sc4ccncc4C(F)(F)F)c(=O)n3C)CC2)[C@@H]1N
(IV) Cc1ncccc1-c1c(N)nc(N2CCC3(CC2)CO[C@@H](C)[C@H]3N)n(C)c1=O
Exercise: Hi! Can you put these in order of pIC50, lowest number first? Return value: ordered labels per request.
Key: II, IV, III, I

###

molecular target: SHP2 (Homo sapiens (Human), UniProt Q06124); experiment: SHP2 allosteric inhibition assay (DiFMUP prompt fluorescence); conditions: 0.5 nM SHP2 activated with 0.5 μM peptide IRS1_pY1172(dPEG8)pY1222; substrate DiFMUP; 25° C.
valueKind: IC50 (nM)

Before answering, review these 2 worked examples.
COc1ccc(-c2c(N)nc(N3CCC4(CC3)CO[C@@H](C)[C@H]4N)n(C)c2=O)cc1F :: 52
C[C@@H]1OCC2(CCN(c3nc(N)c(-c4ccc(-c5ccccc5)cc4)c(=O)n3C)CC2)[C@@H]1N :: 107

(1) C[C@@H]1CC2(CCN(c3nc(N)c(-c4cccc(Cl)c4Cl)c(=O)n3C)CC2)[C@H](N)C1(F)F
(2) C[C@@H]1OCC2(CCN(c3nc(N)c(-c4ccc(C#N)cc4)c(=O)n3C)CC2)[C@@H]1N
(3) C[C@@H]1OCC2(CCN(c3nc(N)c(-c4ccc(SC(F)(F)F)cc4)c(=O)n3C)CC2)[C@@H]1N
(4) C[C@H]1CC2(CCN(c3nc(N)c(Sc4cccnc4C(F)(F)F)c(=O)n3C)CC2)[C@@H](N)[C@@H]1C(F)(F)F (single isomer, unassigned)
Exercise: Order the 4 molecules from highest to lowest IC50. Return value: ordered labels per request.
Key: 4, 2, 1, 3
(4: 856 nM, 2: 256 nM, 1: 89 nM, 3: 14 nM)

###

target: SHP2 (Homo sapiens (Human), UniProt Q06124); assay: SHP2 allosteric inhibition assay (DiFMUP prompt fluorescence); settings: 0.5 nM SHP2 activated with 0.5 μM peptide IRS1_pY1172(dPEG8)pY1222; substrate DiFMUP; 25° C.
pIC50: −log10 of the molar value.
valueKind: pIC50

Before answering, review these 3 worked examples.
Cn1c(N2CCC(C)(CN)CC2)ncc(Sc2ccccc2Cl)c1=O [Example 99] :: 6.43
Cn1c(N2CCC(C)(CN)CC2)nc(N)c(Sc2cccc(N)c2Cl)c1=O [Example 8] :: 6.63
C[C@@H]1OCC2(CCN(c3nc(N)c(-c4ccccc4Cl)c(=O)n3C)CC2)[C@@H]1N [Example 152] :: 7.35

(a) C[C@H]1C[C@@H](N)C2(CCN(c3ncc(Sc4cc(N)ncc4Cl)c(=O)n3C)CC2)C1 [Example 110]
(b) C[C@@H]1OCC2(CCN(c3nc(N)c(-c4ccc(OC(F)(F)F)cc4)c(=O)n3C)CC2)[C@@H]1N [Example 169]
Exercise: Task for the reader: decide whether a or b has the larger pIC50. State your choice using its label.
Key: a
(a: 7.80, b: 6.92)

(a) C[C@@H]1OCC2(CCN(c3nc(N)c(Sc4cc(N)nc(Cl)c4Cl)c(=O)n3C)CC2)[C@@H]1N [Example 19]
(b) COc1nccc(Sc2c(N)nc(N3CCC4(CC3)C[C@@H](C)C[C@H]4N)n(C)c2=O)c1Cl [Example 77]
Exercise: Hello, I am sorting some records. Could you say if a or b has the smaller pIC50 value? State your choice using its label.
Key: b
(b: 7.41, a: 7.85)

###

molecular target: SHP2 (Homo sapiens (Human)); test: SHP2 allosteric inhibition assay (DiFMUP prompt fluorescence); conditions: 0.5 nM SHP2 activated with 0.5 μM peptide IRS1_pY1172(dPEG8)pY1222; substrate DiFMUP; 25° C.
pIC50: −log10 of the molar value.
valueKind: pIC50

(P) C[C@@H]1OCC2(CCN(c3nc(N)c(-c4ccc(OCc5ccccc5)cc4)c(=O)n3C)CC2)[C@@H]1N
(Q) C[C@@H]1OCC2(CCN(c3nc(N)c(-c4ccc(C5CCCCC5)cc4)c(=O)n3C)CC2)[C@@H]1N
(R) C[C@@H]1OCC2(CCN(c3nc(N)c(-c4cccc(Cl)c4)c(=O)n3C)CC2)[C@@H]1N
(S) Cn1c(N2CCC(C)(CN)CC2)nc(N)c(Sc2cccc(OC(F)(F)F)c2)c1=O
Exercise: List these items ordered by pIC50, big to small. Return value: ordered labels per request.
Key: R, P, Q, S
(R: 7.72, P: 7.37, Q: 7.14, S: 6.36)

(I) C[C@@H]1OCC2(CCN(c3nc(N)c(-c4ccc(OC(F)F)cc4)c(=O)n3C)CC2)[C@@H]1N
(II) C[C@@H]1CC2(CCN(c3nc(N)c(-c4ccccc4)c(=O)n3C)CC2)[C@H](N)C1(F)F
(III) Cn1c(N2CCC(C)(CN)CC2)nc(N)c(Sc2cccc3ncccc23)c1=O
(IV) C[C@@H]1OCC2(CCN(c3nc(N)c(-c4ccc(Cl)cc4)c(=O)n3C)CC2)[C@@H]1N
Exercise: Order the 4 compounds from highest to lowest pIC50. Return value: ordered labels per request.
Key: IV, I, II, III
(IV: 7.70, I: 7.47, II: 7.11, III: 6.52)

(I) Cn1c(N2CCC3(CC2)C[C@@H](C(F)(F)F)C[C@H]3N)nc(N)c(-c2cccc(Cl)c2Cl)c1=O
(II) C[C@@H]1OCC2(CCN(c3nc(N)c(-c4ccc(Oc5ccccc5)cc4)c(=O)n3C)CC2)[C@@H]1N
(III) Cn1c(N2CCC3(CC[C@@H]3N)CC2)ncc(Sc2cccc(Cl)c2Cl)c1=O
Exercise: With regard to pIC50, arrange the entries in ascending order, please. Return value: ordered labels per request.
Key: III, I, II
(III: 6.96, I: 7.37, II: 7.57)

(I) Cn1c(N2CCC3(CCC[C@H]3N)CC2)nc(N)c(-c2ccccc2)c1=O
(II) C[C@@H]1OCC2(CCN(c3nc(N)c(-c4ccccc4F)c(=O)n3C)CC2)[C@@H]1N
Exercise: Task for the reader: decide whether I or II has the larger pIC50. State your choice using its label.
Key: I

(A) Cn1c(N2CCC3(CC2)COC[C@H]3N)nc(N)c(Sc2cccc(Cl)c2Cl)c1=O
(B) C[C@@H]1OCC2(CCN(c3nc(N)c(Sc4ccccc4)c(=O)n3C)CC2)[C@@H]1N
Exercise: Hello, I am sorting some records. Could you say if A or B has the smaller pIC50 value? State your choice using its label.
Key: B
(B: 7.09, A: 7.48)

The origin of these recorded values is patent US10308660B2.
